assayed_system: 5-lipoxygenase (Rattus norvegicus)
Construct: 20,000xg supernatant from 6×10^4 homogenized RBL-1 cells; endogenous in cells
Sequence (P12527 1-673): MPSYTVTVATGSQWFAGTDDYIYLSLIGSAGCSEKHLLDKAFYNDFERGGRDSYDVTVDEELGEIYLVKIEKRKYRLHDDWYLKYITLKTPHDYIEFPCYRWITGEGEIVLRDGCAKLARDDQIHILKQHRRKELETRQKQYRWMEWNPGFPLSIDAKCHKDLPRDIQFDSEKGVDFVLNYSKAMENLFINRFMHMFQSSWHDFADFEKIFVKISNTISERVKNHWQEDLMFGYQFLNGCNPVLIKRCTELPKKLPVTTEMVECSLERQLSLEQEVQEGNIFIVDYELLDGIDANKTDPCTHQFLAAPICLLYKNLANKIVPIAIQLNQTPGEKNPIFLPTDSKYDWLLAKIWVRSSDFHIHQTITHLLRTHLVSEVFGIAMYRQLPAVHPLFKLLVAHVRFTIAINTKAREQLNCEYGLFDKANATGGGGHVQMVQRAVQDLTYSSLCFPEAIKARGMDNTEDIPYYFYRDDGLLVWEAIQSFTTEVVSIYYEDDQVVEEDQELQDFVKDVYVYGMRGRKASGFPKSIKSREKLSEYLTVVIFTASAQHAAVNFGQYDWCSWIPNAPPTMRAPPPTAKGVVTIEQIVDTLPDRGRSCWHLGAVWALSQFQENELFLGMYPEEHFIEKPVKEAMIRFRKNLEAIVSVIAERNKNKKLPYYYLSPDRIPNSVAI
assay_details: Lipoxygenase IC50 Determination (in vitro 5-lipoxygenase inhibition, 20,000xg supernatant from homogenized RBL-1 cells)
condition_info: radiolabelled arachidonic acid, 2% DMSO, triplicate incubations, read-out: In vitro 5-lipoxygenase inhibitory potency IC50
Below: a set of entries, each annotated with reported IC50.
Number plus unit, in that order.

Here's what some known entries look like.
INSERT INTO assay_data (molecule, assayed_system, result) VALUES
  ('CCn1c2ccccc2c2cc(C(C)N(O)C(N)=O)ccc21 (stereo not drawn)', '5-lipoxygenase (Rattus norvegicus)', '380 nM'),
  ('CC(=O)N(O)C(C)c1ccc2oc3ccccc3c2c1 (stereo not drawn)', '5-lipoxygenase (Rattus norvegicus)', '290 nM');

Name the recorded IC50 for CCn1c2ccccc2c2cc(CN(O)C(=O)NC)ccc21 .
390 nM
